The entries below are paired with their reported Vd.
# MEASUREMENT_NOTES: Volume of distribution at steady state in Sprague-Dawley rat at 2 mg/kg, iv measured up to 24 hrs by LC-MS/MS analysis
# Type: ADME, organism-based
# TEST_SETTINGS: in vivo, read-out: Vdss
READOUT_KIND: Vd (L/kg)

# COMPOUND, RESULT
data = [
    ("C/C(=C1/OC(=O)NC1=O)C(c1ccc(-c2ccc3cccc(F)c3c2)[nH]c1=O)C(C)C (stereo not drawn)", 1.96),
    ("CCn1ncc2c(F)cc(-c3ccc(C(/C=C4\\OC(=O)NC4=O)(CC)CC)c(=O)[nH]3)cc21", 0.24),
    ("CC(C)C(/C=C1\\OC(=O)NC1=O)c1ccc(-c2ccc3cccc(F)c3c2)[nH]c1=O (stereo not drawn)", 0.23),
]

Values compiled from ChEMBL document CHEMBL4680377.
